meta.source: patent US4879381A

Test system: Pro. vulgaris GN76 (Cephalosporinase-producing bacteria)
assay-explanation: Antibacterial activity (MIC, agar plate)
Assay type: cell-based
condition-summary: Proteus vulgaris; Pro. vulgaris GN76 (cephalosporinase-producing); 10^4 cells/plate, 37° C., 20 hours; read-out: MIC
Protocol: According to the standard method of the Japanese Chemotherapeutic Society [Chemotherapy, Vol. 23, Pages 1-2 (1975)], a culture obtained by cultivating bacteria in Heart Infusion broth (manufactured by Eken Kagakusha) at 37° C. for 20 hours was inoculated into a Heart Infusion agar medium (manufactured by Eiken Kagakusha) and cultivated at 37° C. for 20 hours, after which the growth of bacteria was examined visually. […]
Listed next: entries and their corresponding MIC.
Give your result in µg/mL as a bare value.

Example cases with answers are listed next.
CO/N=C(\C(=O)NC1C(=O)N2C(C(=O)O)=C(Cn3ncnn3)CSC12)c1csc(N)n1 (stereo not drawn)    0.78
CO/N=C(\C(=O)NC1C(=O)N2C(C(=O)O)=C(Cc3ccc(O)cc3)CSC12)c1csc(N)n1 (stereo not drawn)    1.56
CO/N=C(\C(=O)NC1C(=O)N2C(C(=O)O)=C(Cn3nnc(N)n3)CSC12)c1csc(N)n1 (stereo not drawn)    1.56
Cc1nnn(CC2=C(C(=O)O)N3C(=O)C(NC(=O)/C(=N\O)c4csc(N)n4)C3SC2)n1 (stereo not drawn)    6.25

With those in mind, consider the next compound.
Quick note, MIC for CO/N=C(\C(=O)NC1C(=O)N2C(C(=O)O)=C(CNC(C)=O)CSC12)c1csc(N)n1 (stereo not drawn) landed at 6.25

###

assay-explanation: in vivo
condition-summary: mouse, intravenous, mice
endpoint: LD50

The recorded LD50 for entry Cc1nnn(CC2=C(C(=O)O)N3C(=O)C(NC(=O)Cc4csc(N)n4)C3SC2)n1 (stereo not shown) equals > 3000 mg/kg
